The values you see were collected from paper PMC4520234.

system: mice; test: In vivo tolerability in mice, intraperitoneal injection; details: i.p. injection 200 mg/kg; graded mild, moderate, severe, or lethal
METRIC: mouse toxicity IP 200 mg/kg

For orientation, consider the following solved cases.
Request: I have this compound here, C=CCc1cccc(/C=N/NC(=O)CN2CCN(C(=O)c3ccc(F)cc3)CC2)c1O , and I need its recorded mouse toxicity IP 200 mg/kg.
Response: moderate

Request: Now consider CCCc1cc(F)cc(/C=N/NC(=O)CN2CCN(C(=O)c3ccc(F)cc3)CC2)c1O .
Response: severe

Request: And O=C(CN1CCN(C(=O)c2ccc(C(F)(F)F)cc2)CC1)N/N=C/c1cc(F)ccc1O ?
Response: moderate

Request: Similarly, C=CCc1cc(F)cc(/C=N/NC(=O)CN2CCN(C(=O)c3ccccc3)CC2)c1O ?
Response: moderate

Now consider a different compound.
Request: Requested field: mouse toxicity IP 200 mg/kg. Item: C=CCc1cc(F)cc(/C=N/NC(=O)CN2CCN(C(=O)c3ccc(F)cc3)CC2)c1O
Response: severe
